The reported numbers originate from patent US20230374114A1.

# MEASURED_ON: Biotinylated SARS-CoV-2 S1 protein (ACRO, S1N-C82E8) (UniProt P0DTC2 16-685)
# ASSAY_METHOD_TEXT: BLI
REPORTED_METRIC: Kd (nM)

Ab 14 scFv-Fc (scFv, V domains shown) VH: QVQLQQSGPGLVKPSQTLSLTCAISGDSVSSNSAAWNWIRQSPARGLEWLGRTYYRSRWYNDYAISMKSRITINPDTSKNQFSLQLESVTPEDTAVYYCAREIRGFDYWGQGTLVTVSS VL: QSVLTQPPSASGSPGQSVTISCTGTSSDVGAYNFVSWYQHHPGKAPKLIIYDFNKRPSGVPDRFSGSKSGNTASLTVSGLQADDEADYYCSSYAGSNNFDVVFGGGTKLTVL	0.594
S1-R3-T1-C4 (Ab_8) (scFv, V domains shown) VH: QVQLVQSGAEVKKPGSSVKVSCKASGGTFSSYAISWLRQAPGQGLEWMGWINPNSGGTNYAQKFQGRVTMTRDTSISTAYMELSRLRSDDTAVYYCARGSGGYYLGWGQGTLVTVSS VL: QPGLTQPPSVSKGLRQTATLTCTGNSNNVGNQGAAWLQQHQGHPPKLLSYMNNNRPPGISERFSASRSGNTASLTITGLQPEDEADYYCSAWDSSLSRWVFGGGTKLSVL	325
Ab_13 (scFv, V domains shown) VH: QVTLKESGPKLVKPTQTLTLTCTFSGFSLSTSGVGVGWIRQPPGKALEWLALIYWDDDKRYSPSLKSRLTIAKDTSKYQVVLTMTNMDPVDTATYYCARISGSGYFYPFDIWGQGTMVTVSA VL: NFMLTQPHSVSESPGKTVTISCTRSSGSIASNYVQWYQQRPGSAPTTVIYEDNQRPSGVPDRFSGSIDSSSNSASLTISGLKTEDEADYYCQSYDSSNLWVFGGGTKLTVL	1.14
